# PROCEDURE DETAILS: Pharmacokinetics of schizandrin in plasma of freely moving rats after i.v./oral schizandrin or oral S. chinensis product (LC-MS/MS, noncompartmental analysis)
# Assay type: in vivo, rat
# CONDITION SUMMARY: schizandrin 10 mg/kg orally, rat
ASSAY ENDPOINT: clearance (CL) (mL/min/kg)
Unit mL/min/kg implied. Number only.

# input Give me measured clearance (CL), please, for this compound: COc1cc2c(c(OC)c1OC)-c1c(cc(OC)c(OC)c1OC)C[C@](C)(O)[C@@H](C)C2
# output 340

---

# PROCEDURE DETAILS: Pharmacokinetics of schizandrin in plasma of freely moving rats after i.v./oral schizandrin or oral S. chinensis product (LC-MS/MS, noncompartmental analysis)
# Type: in vivo, rat
# CONDITION SUMMARY: male, Sprague-Dawley, po; schizandrin 10 mg/kg, rat plasma, n = 6
# Description: All experimental protocols involving animals were reviewed and approved by the Institutional Animal Care and Use Committee (IACUC number: 1060813) of National Yang-Ming University. Male Sprague-Dawley rats were obtained from the Laboratory Animal Center of the National Yang-Ming University, Taipei, Taiwan. The animals had free access to food (laboratory rodent diet 5P14, PMI Feeds, Richmond, IN) and water. […]
ASSAY ENDPOINT: AUC (µg·h/mL)
Give the quantity in µg·h/mL, number only.

# input Please report the measured AUC for COc1cc2c(c(OC)c1OC)-c1c(cc(OC)c(OC)c1OC)C[C@](C)(O)[C@@H](C)C2 [schizandrin]
# output 0.112

---

# PROCEDURE DETAILS: Pharmacokinetics of schizandrin in plasma of freely moving rats after i.v./oral schizandrin or oral S. chinensis product (LC-MS/MS, noncompartmental analysis)
# Assay type: in vivo, rat
# CONDITION SUMMARY: male, Sprague-Dawley, po; schizandrin 10 mg/kg, rat plasma, n = 6
ASSAY ENDPOINT: Cmax (ng/mL)
Field: numeric (ng/mL). Do not append units.

# input Could you please provide reported Cmax for COc1cc2c(c(OC)c1OC)-c1c(cc(OC)c(OC)c1OC)C[C@](C)(O)[C@@H](C)C2 [schizandrin] ? Thanks!
# output 60

---

# PROCEDURE DETAILS: Pharmacokinetics of schizandrin in plasma of freely moving rats after i.v./oral schizandrin or oral S. chinensis product (LC-MS/MS, noncompartmental analysis)
# Type: in vivo, rat
# CONDITION SUMMARY: male, Sprague-Dawley, rat, plasma, po, 10 mg/kg, schizandrin 10 mg/kg, p.o., rat plasma, n = 6; read-out: Tmax
# Text: All experimental protocols involving animals were reviewed and approved by the Institutional Animal Care and Use Committee (IACUC number: 1060813) of National Yang-Ming University. Male Sprague-Dawley rats were obtained from the Laboratory Animal Center of the National Yang-Ming University, Taipei, Taiwan. The animals had free access to food (laboratory rodent diet 5P14, PMI Feeds, Richmond, IN) and water. […]
ASSAY ENDPOINT: Tmax

# input Please look at this molecule and report its Tmax: COc1cc2c(c(OC)c1OC)-c1c(cc(OC)c(OC)c1OC)C[C@](C)(O)[C@@H](C)C2
# output ≤ 30 min

---

# PROCEDURE DETAILS: Pharmacokinetics of schizandrin in plasma of freely moving rats after i.v./oral schizandrin or oral S. chinensis product (LC-MS/MS, noncompartmental analysis)
# Type: in vivo, rat
# CONDITION SUMMARY: male, Sprague-Dawley, iv; schizandrin 10 mg/kg, rat plasma, n = 6
ASSAY ENDPOINT: half-life (min)
Please respond with the number in min and leave the unit unwritten.

# input Look up and state reported half-life for COc1cc2c(c(OC)c1OC)-c1c(cc(OC)c(OC)c1OC)C[C@](C)(O)[C@@H](C)C2
# output 42.2

---

# PROCEDURE DETAILS: Pharmacokinetics of schizandrin in plasma of freely moving rats after i.v./oral schizandrin or oral S. chinensis product (LC-MS/MS, noncompartmental analysis)
# Assay type: in vivo, rat
# CONDITION SUMMARY: male, Sprague-Dawley, iv; schizandrin 10 mg/kg, rat plasma, n = 6
ASSAY ENDPOINT: MRT (min)
// units = min; emit number, no label

# input Specify measured MRT for COc1cc2c(c(OC)c1OC)-c1c(cc(OC)c(OC)c1OC)C[C@](C)(O)[C@@H](C)C2 .
# output 34.8

---

# PROCEDURE DETAILS: Pharmacokinetics of schizandrin in plasma of freely moving rats after i.v./oral schizandrin or oral S. chinensis product (LC-MS/MS, noncompartmental analysis)
# Type: in vivo, rat
# CONDITION SUMMARY: male, Sprague-Dawley, iv; schizandrin 10 mg/kg, rat plasma, n = 6
ASSAY ENDPOINT: AUC

# input Please give measured AUC of the following entry: COc1cc2c(c(OC)c1OC)-c1c(cc(OC)c(OC)c1OC)C[C@](C)(O)[C@@H](C)C2 [schizandrin]
# output 718 ng·h/mL
